The origin of these recorded values is PubChem BioAssay AID330.

System: P388 leukemia ip, CD2F1 mice, survival T/C
Assay Comment: NCI In Vivo Anticancer Drug Screen. Data for tumor model P388 Leukemia (intraperitoneal) in CD2F1 (CDF1) mice
Assay Conditions: endpoint: median survival time; dose: 200.0 mg/kg/injection; schedule: Q01DX005 (ip); vehicle: Klucel (hydroxypropylcellulose) (HPC); higher = longer survival
Toxic doses and inconclusive results are not listed. Peptide text beside a SMILES is read from it. * marks the point of attachment. Boc = CC(C)(C)OC(=O)*
# reported T/C; entries follow
Endpoint Name: T/C

1. Cc1cc(N/N=C/c2ccc(Br)cc2)c2cc3c(cc2n1)OCO3 :: 96 % of control
2. Nc1ccc(N)c2c1C(=O)c1c(N)ccc(N)c1C2=O :: 101 % of control
3. O=C1NC(O)c2cc(Br)ccc2O1 (configuration not stated) :: 106 % of control
4. NC(Cc1ccccc1)C(=O)NCC(=O)NC(Cc1ccccc1)C(=O)NCC(=O)O (configuration not stated) (H-FGFG-OH; configuration not given here) :: 102 % of control
5. Fc1ccccc1C(Nc1nc2ccccc2s1)Nc1nc2ccccc2s1 :: 113 % of control
6. COCN(C)N=Nc1ccc(C(C)=O)cc1 :: 121 % of control
7. O=C1Nc2ccccc2/C1=N/N1C(=O)c2ccccc2C1=O :: 97 % of control
8. CN(CCC(CCC(=O)O)(C(=O)O)c1ccccc1)Cc1ccccc1 (configuration not stated) :: 98 % of control
9. CCCCCCCC(=O)Nc1cc2c3c(c1)CCC(=O)N3CCC2 :: 98 % of control
10. NC(CCC(=O)O)C(=O)NC(Cc1ccc(O)cc1)C(=O)NC(CCC(=O)O)C(=O)O (stereo not drawn) (H-Glu-Tyr-Glu-OH; configuration not given here) :: 98 % of control
11. NC(N)=NNC(O)(C(=O)O)C(=O)O :: 96 % of control
12. C[CH2][Ge]([CH2]C)[CH2]C(=O)OC.C[CH2][Ge]([CH2]C)[CH2]C(=O)OC :: 101 % of control
13. Clc1ccc(C2Oc3ccccc3-c3nc4ncccc4cc32)cc1 (configuration not stated) :: 91 % of control
14. O=c1oc2c(cc1-c1ccccc1)CCc1ccccc1-2 :: 102 % of control
15. O/N=C(\CNC/C(=N\O)NO)NO :: 93 % of control
16. CSCCC(NC(=O)OC(C)(C)C)C(=O)NC(Cc1ccccc1)C(=O)O (stereo not drawn) (Boc-Met-Phe-OH; configuration not given here) :: 106 % of control
17. CC(=O)c1cc2c(cc1O)OC(C)(C)C=C2 :: 92 % of control
18. COc1ccc2c(c1)CCC1C=NOC21 (configuration not stated) :: 97 % of control
19. C(=Nc1ccccc1)C1=C(Nc2ccccc2)CCC1 :: 106 % of control
20. Cc1ccc(S(=O)(=O)NC(=O)n2ccnc2C)cc1 :: 104 % of control
21. [O-]c1on[n+](-c2ccccc2)c1CN1CCOCC1 :: 102 % of control
22. O=C(NC(Cc1cn(Cc2ccccc2)cn1)C(=O)O)OCC1c2ccccc2-c2ccccc21 (configuration not stated) :: 99 % of control

====

Test system: P388 leukemia ip, CD2F1 mice, survival T/C
Assay Comment: NCI In Vivo Anticancer Drug Screen. Data for tumor model P388 Leukemia (intraperitoneal) in CD2F1 (CDF1) mice
Assay Conditions: endpoint: median survival time; dose: 3.12 mg/kg/injection; schedule: Q01DX009 (ip); vehicle: saline; higher = longer survival
Inconclusive results and toxic doses are left out.
In this section, each of the compounds is paired with its reported T/C.
Endpoint Name: T/C

1) [Cl][Sn]([c]1ccccc1)[c]1ccccc1 :: 86 % of control
2) CCC[CH2][Sn]([CH2]CCC)([CH2]CCC)[CH2]CC[N+](C)(CCO)CCO.CS(=O)(=O)[O-] :: 87 % of control
3) Clc1ccc(C2C3CCN2CC3)cc1 (centres undefined) :: 94 % of control
4) O=C1OCC2OC(=O)c3cc(O)c(O)c(O)c3-c3c(O)c(O)c(O)c4c3C(=O)OC(C2OC(=O)c2cc(O)c(O)c(O)c2-c2c1cc(O)c(O)c2O)C1OC(=O)c2c-4c(O)c(O)c(O)c2C1O (centres undefined) :: 100 % of control

====

Tested on: P388 leukemia ip, CD2F1 mice, survival T/C
Assay Comment: NCI In Vivo Anticancer Drug Screen. Data for tumor model P388 Leukemia (intraperitoneal) in CD2F1 (CDF1) mice
Assay Conditions: endpoint: median survival time; dose: 100.0 mg/kg/injection; schedule: Q04DX002 (ip); vehicle: Klucel (hydroxypropylcellulose) (HPC); higher = longer survival
Toxic doses and inconclusive results are not listed.
The entries below come with measured T/C values attached.
Endpoint Name: T/C

1) O=S1(=O)Cc2c3c(c4c(c2C1)CS(=O)(=O)C4)CS(=O)(=O)C3 :: 96 % of control
2) COc1ccc2c(c1)[C@@]13CCCCC1[C@@H](C2)NCC3 (some centres undefined) :: 101 % of control
3) O=c1c2c(nc3n1CCSCC3)NCCC2 :: 104 % of control
4) CC(=O)Nc1ccc(S(=O)(=O)Oc2noc3ccc(Cl)cc23)cc1 :: 98 % of control
5) CC(=O)CC(=O)Nc1ccc(Oc2ccccc2)cc1 :: 100 % of control
6) CN1CCc2[nH]c3ccccc3c2C1 :: 100 % of control
7) Cn1c(=O)c2nc(-c3cccc([N+](=O)[O-])c3)cnc2n(C)c1=O :: 89 % of control
8) N#CC1C(c2ccc(Cl)cc2)C(C(N)=O)C(=O)NC1(O)c1ccccc1 (centres undefined) :: 100 % of control
9) Cc1ccc(NC(O)(C(F)(F)F)C(F)(F)F)cc1 :: 100 % of control

====

System: P388 leukemia ip, CD2F1 mice, survival T/C
Assay Comment: NCI In Vivo Anticancer Drug Screen. Data for tumor model P388 Leukemia (intraperitoneal) in CD2F1 (CDF1) mice
Assay Conditions: endpoint: median survival time; dose: 200.0 mg/kg/injection; schedule: Q04DX003 (ip); vehicle: Klucel (hydroxypropylcellulose) (HPC); higher = longer survival
Inconclusive results and toxic doses are left out.
Each entry below lists one item and its recorded T/C value.
Endpoint Name: T/C

1) CC1=C/C(=N\[Se]c2ccccc2)C(=O)C(C)=C1 :: 91 % of control
2) COC(=O)/C=C/COc1ccccc1C(=O)NCc1ccc([N+](=O)[O-])cc1 :: 108 % of control
3) CCOP(O)(=S)OCC.[Gd] :: 90 % of control
4) Cn1cc(/C=C/[N+](=O)[O-])c2ccc(OCc3ccccc3)cc21 :: 95 % of control
5) COC1C(O[C@@H]2c3c(cc4c(c3O)C(=O)c3c(O)cccc3C4=O)C(=O)C(C)(O)C2OC)OC(C)C(O)C1O (stereo not given in full) :: 121 % of control

====

System: P388 leukemia ip, CD2F1 mice, survival T/C
Assay Comment: NCI In Vivo Anticancer Drug Screen. Data for tumor model P388 Leukemia (intraperitoneal) in CD2F1 (CDF1) mice
Assay Conditions: endpoint: median survival time; dose: 50.0 mg/kg/injection; schedule: Q01DX009 (ip); vehicle: Klucel (hydroxypropylcellulose) (HPC)
Toxic doses and inconclusive results are not listed. The calls were made as follows: active = survival T/C of 150% or more; inactive = T/C below 125% in these data.
Labels: YES for active, NO for inactive

1. CSc1nc(N)c(C(=O)Nc2cccc3ccccc23)s1 :: NO
2. O=S1(=O)CCN(CCCc2ccccc2)CC1 :: NO
3. Cc1ccc(S(=O)(=O)N(C)c2ccc(Cl)cc2C2=NCCc3ccccc32)cc1 :: NO
4. CCOC(=O)Nc1nc2ccc(NC(C)=O)cc2s1 :: NO
5. COc1ccc(/C(=N\N)C2=NNC3(CCCCC3)NN2)cc1 :: NO
6. Cc1cc(C)c2c(c1)/C(=C/C(=O)c1ccccc1)C(=O)N2 :: NO
7. Nc1cccc2c1C(=O)c1cccc(N)c1C2=O :: NO
8. NCCN1C(=O)c2ccccc2C1(O)c1ccc(Cl)cc1 (stereo not drawn) :: NO
9. CCCCCN(CCCCC)CC(O)c1c(OC)ccc2ccccc12 (stereo not drawn) :: NO
10. C[C@]12CCCC[C@@H]1CC[C@@H]1[C@@H]2CC[C@]2(C)[C@@H](N(CCO)CCCO)CC[C@@H]12 :: NO
11. CC12CCC3(CC(=O)C1CCC2O)OCCO3 (stereo not drawn) :: NO
12. CNC(=O)OCc1c(COC(=O)NC)c(-c2ccc(Cl)c(Cl)c2)n2c1CCC2 :: YES
13. CCO[Si](CCCCl)(OCC)OCC :: NO
14. C=CCN=C(NC#N)SC :: NO
15. ClC1=CCCC(C(Br)Br)C1 (stereo not drawn) :: NO
16. NNC(=O)CN1c2ccccc2Sc2ccc(Cl)cc21 :: NO
17. Clc1nc(Cl)nc(Nc2ccccc2Cl)n1 :: NO
18. CCOC(=O)C1(n2[nH]c(=O)n(-c3ccccc3)c2=O)CC(C)OC1=O (stereo not drawn) :: NO
19. CC=C/C=C/[C@@H]1O[C@](O)([C@H](CC)C(=O)NC/C=C/C=C(\C)[C@@H](OC)[C@@H](C)[C@@H]2O[C@H](/C=C/C=C/C=C(\C)C(=O)c3c(O)cc[nH]c3=O)[C@H](O)[C@@H]2O)[C@H](O)[C@H](O)C1(C)C :: NO
20. O=C(NC(CO)C(=O)O)OCc1ccccc1 (stereo not drawn) :: NO
21. CCC(C)c1ccc(S(=O)(=O)Nc2cc(Cl)c([N+](=O)[O-])cc2O)cc1 (stereo not drawn) :: NO
22. COc1ccc2c(c1)CCC1C2CCC2(C)C1CCC2(O)CCOS(=O)(=O)c1ccc(C)cc1 (stereo not drawn) :: NO
23. O=C(CBr)N1c2ccccc2Sc2c1ccc1ccccc21 :: NO
